Every entry's value here was drawn from patent US20250092065A1.

Test system: MYB
experimentNotes: HiBiT protein abundance assay, MYB (K562 HiBiT knock-in)
Format: cell-based, human
experimentalSetup: HiBiT knock-in K562 cells, 24 hours, top dose 10 μM
pIC50: −log10 of the molar value.
endpoint: pIC50

Report pIC50 for Cc1nc2cc(O)c(-c3ccc4nc(N5CCC(NCC6CC6)C5)ccc4n3)cc2o1 (stereo not shown) [Compound 389] please.
> 7.00

Report pIC50 for Cn1cc2cc(-c3ccc4cc(C5CCNCC5)c(F)cc4n3)c(O)cc2n1 please.
< 5.00

Report pIC50 for Cn1cc2cc(-c3ccc4nc(N5CCC6(CCN6)C5)ccc4n3)c(O)cc2n1 (stereo not shown) please.
6.00 to 7.00

Report pIC50 for Cc1nc2cc(O)c(-c3ccc4nc(N5CCN6CCCC6C5)ccc4n3)cc2o1 (stereo not shown) please.
6.00 to 7.00

====

System: MYB mRNA
experimentNotes: RT-qPCR splicing assay, MYB mRNA canonical (CJ) and alternative (AJ) junction
Format: cell-based, human
experimentalSetup: Homo sapiens, MYB canonical junction mRNA, RT-qPCR; read-out: MYB CJ (decrease in CJ mRNA levels, IC50)
Procedure: Compounds described herein were used to modulate RNA transcript abundance in cells. The expression of a target mRNA was measured by detecting the formation of an exon-exon junction in the canonical transcript (CJ). A compound mediated exon-inclusion event was detected by observing an increase in formation of a new junction with an alternative exon (AJ). Real-time qPCR assays were used to detect these splicing switches and interrogate the potency of various compounds towards different target genes. […]
Task for the reader: assign each of the following compounds its reported IC50.

Report IC50 for Cc1nc2cc(O)c(-c3ccc4cc(N5CC[C@H](NC(C)(C)C)C5)ncc4n3)cc2o1 please.
1 to 10 µM

Report IC50 for Cn1cc2cc(O)c(-c3ccc4nc(C5CCNCC5)ccc4n3)cc2n1 please.
1 to 10 µM

Report IC50 for Cc1cn2nc(-c3ccc4nc(N5CCC(NC(C)(C)C)C5)ccc4n3)c(O)c2c(C)n1 (stereo not shown) please.
0.1 to 1 µM

Report IC50 for Cc1c(O)c(-c2ccc3nc(N4CC[C@@H](NC5CCC5)C4)ccc3n2)cc2cn(C)nc12 (single isomer, unassigned) please.
< 0.1 µM

Report IC50 for C[C@@H]1CC(c2ccc3nc(-c4cc5cn(C)nc5cc4O)ccc3n2)C[C@H](C)N1 (stereo partly shown) please.
0.1 to 1 µM

Report IC50 for Cn1cc2cc(-c3ccc4nc(C5CCNCC5)ccc4n3)cc(F)c2n1 please.
1 to 10 µM

Report IC50 for Cc1nc2c(F)c(O)c(-c3ccc4nc(N5CCC(NC6(C)CC6)C5)ccc4n3)cc2o1 (stereo in doubt) [Compound 327] please.
< 0.1 µM

Report IC50 for Cn1cc2c(O)c(-c3cc4ccc(C5CCNCC5)nc4cn3)ccc2n1 please.
1 to 10 µM

Report IC50 for Cc1c(O)c(-c2ncc3nc(N4CCNCC4)ccc3n2)cc2cn(C)nc12 please.
< 0.1 µM

Report IC50 for Cn1cc2cc(-c3ccc4nc(C5CCNCC5)ccc4n3)c(C(F)F)cc2n1 please.
> 10 µM

Report IC50 for Cc1nc2c(C)c(O)c(-c3ccc4nc(N5CC[C@@H](NC(C)C)C5)ncc4n3)cc2o1 please.
< 0.1 µM

Report IC50 for C[C@@H]1CN(c2ccc3nc(-c4cc5cn(C)nc5c(F)c4O)nc(C#N)c3c2)C[C@H](C)N1 please.
< 0.1 µM

Report IC50 for CNC1CCN(c2ccc3nc(-c4cc(C#N)c5nc(C)cn5c4)ncc3n2)C1 (stereo not shown) please.
< 0.1 µM

Report IC50 for Cn1cc2cc(-c3ccc4nc(C5CCNC6(CC6)C5)ncc4n3)c(O)cc2n1 (stereo not shown) please.
0.1 to 1 µM

Report IC50 for C[C@@H]1CN(c2ccc3nc(-c4cc5cn(C)nc5c(F)c4O)nc(C(N)=O)c3c2)C[C@H](C)N1 please.
< 0.1 µM

Report IC50 for Cn1cc2cc(-c3ccc4nc(N5CC[C@@H](N[C@H]6C[C@H](F)C6)C5)ccc4n3)c(O)c(F)c2n1 (single isomer, unassigned) please.
< 0.1 µM
